assay: Aqueous solubility of the compound; format: physicochemical; conditions: buffer
Quantity kind: solubility (µg/mL)
Field format: number, assumed µg/mL, no unit text.

Determine its reported solubility: Cn1ccc2cccc(COc3cccc(-c4c(Cc5ccccc5)nnc5c(C(F)(F)F)cccc45)c3)c21
2
